We begin with a simple list: items and their reported TGI.
Test system: OVCAR-5 ovarian
Assay: NCI tumour cell line growth inhibition, 48 h
observable: TGI

| molecule | measurement |
| --- | --- |
| N#Cc1c[nH]n2c(N=Nc3ccc(Cl)cc3)c(O)nc12 | > 100 µM |
| COc1nncc2[nH]c(-c3ccccc3)cc12 | > 100 µM |
| O=C(Cc1ccc(O)c(O)c1)NCc1c[nH]c2ccccc12 | > 100 µM |
| N[C@@H]1CCCC[C@@H]1N.O=P([O-])([O-])CN(CCN(CP(=O)([O-])[O-])CP(=O)([O-])[O-])CP(=O)([O-])[O-].[Pt+2] | > 25 µM |
| O=C(Nc1ccc(Oc2ccc(Nc3nc4ccccc4s3)cc2)cc1)Nc1ccc(Cl)c(C(F)(F)F)c1 | 3.61 µM |
| NC(=O)c1ccccc1NC(=O)C(=O)C(C(=O)c1ccc(Cl)c(Cl)c1)C1OC(=O)c2ccccc21 (centres undefined) | > 100 µM |
| O=C(/C=C/c1ccc(O)cc1)c1ccc(O)cc1 | > 76.3 µM |
| CCCCCC1=CC(=O)C1(Cl)Cl | 29.5 µM |
| Nc1c(S(=O)(=O)O)cc2cc(S(=O)(=O)O)ccc2c1N=Nc1ccc(-c2ccc(N=Nc3c(N)c(S(=O)(=O)O)cc4cc(S(=O)(=O)O)ccc34)c(S(=O)(=O)O)c2)cc1 | > 100 µM |
